This section presents binders with their documented pKd values.
Biological target: T1, recombinant human TIGIT (human, UniProt Q495A1 22-141, limits assumed)
T1 construct: recombinant human TIGIT used in Carterra SPR; also called hTIGIT
T1 sequence (looked up): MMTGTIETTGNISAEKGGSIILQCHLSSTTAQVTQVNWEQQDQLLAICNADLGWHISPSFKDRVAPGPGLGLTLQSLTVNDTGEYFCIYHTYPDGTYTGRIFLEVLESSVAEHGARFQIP
Assay: SPR Carterra, average
pKd: −log10 of the molar value.
MEASUREMENT TYPE: pKd

TIGIT-SC100 (Fc fusion, VHH-Fc fusion in assay) VHH: EVQLVESGGGLVQPGGSLRLSCAASGRTLSDRAMGWFRQAPGKEREFVAAITDNGGSTYYADSVKGRFTISADNSKNTAYLQMNSLKPEDTAVYYCARWYSSSGDYYYMDVWGQGTLVTVSS: 7.82
TIGIT-SC81 (Fc fusion, VHH-Fc fusion in assay) VHH: EVQLVESGGGLVQPGGSLRLSCAASGRSFKDDAMGWFRQAPGKEREFVAAISWSGDSTHYADSVKGRFTISADNSKNTAYLQMNSLKPEDTAVYYCARWVWASGTYWIDYWGQGTLVTVSS: 7.82
TIGIT-SC106 (Fc fusion, VHH-Fc fusion in assay) VHH: EVQLVESGGGLVQPGGSLRLSCAASGFPFDDYAMGWFRQAPGKERELVAVIRWTGMSTHYADSVKGRFTISADNSKNTAYLQMNSLKPEDTAVYYCAKGIAVAGAFDYWGQGTLVTVSS: 8.10
TIGIT-SC88 (Fc fusion, VHH-Fc fusion in assay) VHH: EVQLVESGGGLVQPGGSLRLSCAASGFTFSSDWMGWFRQAPGKEREFVAAINRSGHSTSYADSVKGRFTISADNSKNTAYLQMNSLKPEDTAVYYCARWGGVTFGGVYPLEYWGQGTLVTVSS: 7.66
TIGIT-SC31 (Fc fusion, VHH-Fc fusion in assay) VHH: EVQLVESGGGLVQPGGSLRLSCAASGRAFESYAMGWFRQAPGKERELVATIGWSGTDYADSVKGRFTISADNSKNTAYLQMNSLKPEDTAVYYCAKGYTSGLSDWGQGTLVTVSS: 8.32
TIGIT-SC20 (Fc fusion, VHH-Fc fusion in assay) VHH: EVQLVESGGGLVQPGGSLRLSCAASGNTFSGGFMGWFRQAPGKEREWVASVLRGGYTWYADSVKGRFTISADNSKNTAYLQMNSLKPEDTAVYYCATPRGYWGQGTLVTVSS: 8.57
TIGIT-SC117 (Fc fusion, VHH-Fc fusion in assay) VHH: EVQLVESGGGLVQPGGSLRLSCAASGNTFSGGFMGWFRQAPGKEREWVASVLRGGYTWYADSVKGRFTISADNSKNTAYLQMNSLKPEDTAVYYCDAADYWGQGTLVTVSS: 8.02
TIGIT-SC41 (Fc fusion, VHH-Fc fusion in assay) VHH: EVQLVESGGGLVQPGGSLRLSCAASGMTTIGPMGWFRQAPGKEREFVASIAWGDGNTYYADSVKGRFTISADNSKNTAYLQMNSLKPEDTAVYYCVRGGSRTLWGQGTLVTVSS: 7.72
